- Tested on: MDR1
- ASSAY NOTES: MDR1-MDCKII bidirectional permeability assay
- Type: in vitro ADME, Canine
- SETUP CONDITIONS: dog, MDCK-MDR1, pH 7.4; basolateral-to-apical; read-out: B-A Percent Recovery
PROPERTY NAME: recovery at 40 min (%)
Express the result in % but write the number alone.

> print(dat)
                                   molecule       property.name  units.label  recorded.number
1                    COCc1cc(CCN)c(OC)cc1Br  recovery at 40 min            %               83
2  COCCc1cc(CCN)c(OC)cc1Br [Compound 2CB-5ME, reference compound]  recovery at 40 min            %               79

Prompt: For the molecule COCc1cc(CCN)c(OC)cc1CC(C)C , report recovery at 40 min.
Completion: 79

* * *

Measured Mean Percent Inhibition of Control Specific Binding values are reported for all entries that follow.
- TARGET OR SYSTEM: D1 (h) (Homo sapiens)
- Construct: expressed in transfected cells; host or cells: CHO cells
- Sequence (P21728 whole entry): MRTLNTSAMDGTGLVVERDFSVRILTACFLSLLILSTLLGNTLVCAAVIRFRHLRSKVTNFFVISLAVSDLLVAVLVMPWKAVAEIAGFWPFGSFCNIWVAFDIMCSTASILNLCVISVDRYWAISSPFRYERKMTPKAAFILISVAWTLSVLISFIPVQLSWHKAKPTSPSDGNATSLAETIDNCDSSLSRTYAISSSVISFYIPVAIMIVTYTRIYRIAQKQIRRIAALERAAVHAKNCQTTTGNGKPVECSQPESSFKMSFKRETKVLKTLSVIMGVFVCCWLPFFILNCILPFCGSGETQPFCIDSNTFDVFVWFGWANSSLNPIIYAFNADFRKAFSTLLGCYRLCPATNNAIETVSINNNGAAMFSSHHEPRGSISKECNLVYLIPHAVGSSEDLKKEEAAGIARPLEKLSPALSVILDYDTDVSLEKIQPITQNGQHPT
- ASSAY NOTES: Radioligand binding D1 (h) (antagonist radioligand), [^3H]SCH 23390, CHO cells
Express the result in % but write the number alone.

> print(dat)
                                   compound  recorded.number
1                COCc1cc(CCN)c(OC)cc1CC(C)C             −1.4
2                 COCc1cc(CCN)c(O)cc1CC(C)C              4.0
3  COCCc1cc(CCN)c(OC)cc1Br [Compound 2CB-5ME, reference compound]             28.1

Below: the item to evaluate.
Prompt: For the compound COCc1cc(CCN)c(OC)cc1Br , report Mean Percent Inhibition of Control Specific Binding.
Completion: 21.1

* * *

- TARGET OR SYSTEM: 5-HT2A (Homo sapiens, UniProt P28223)
- Sequence (P28223 whole entry, looked up): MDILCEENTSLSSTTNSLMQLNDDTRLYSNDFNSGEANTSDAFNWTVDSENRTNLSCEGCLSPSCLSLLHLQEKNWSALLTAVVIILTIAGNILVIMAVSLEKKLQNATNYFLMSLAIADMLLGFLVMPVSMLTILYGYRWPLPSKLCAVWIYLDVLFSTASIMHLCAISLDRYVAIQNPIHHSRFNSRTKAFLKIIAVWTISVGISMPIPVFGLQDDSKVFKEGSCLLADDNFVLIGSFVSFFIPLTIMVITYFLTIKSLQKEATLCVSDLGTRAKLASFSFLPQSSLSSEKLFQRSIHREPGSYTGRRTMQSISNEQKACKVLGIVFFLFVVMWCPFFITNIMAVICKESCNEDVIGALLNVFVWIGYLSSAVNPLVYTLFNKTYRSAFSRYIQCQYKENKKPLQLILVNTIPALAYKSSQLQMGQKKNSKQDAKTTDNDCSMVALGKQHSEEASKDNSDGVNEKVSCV
- ASSAY NOTES: IP-One HTRF IP-1 accumulation functional assay, 5-HT2A-expressing HEK293
- Type: cell-based
- Set-up: host or cells: HEK293
PROPERTY NAME: pEC50
# reply with the number alone; pEC50 is -log10 of concentration in mol/L

> print(dat)
                                   compound  recorded.number
1                COCc1cc(CCN)c(OC)cc1CC(C)C             6.47
2                    COCc1cc(CCN)c(OC)cc1Br             7.23
3  COCCc1cc(CCN)c(OC)cc1Br [Compound 2CB-5ME, reference compound]             6.64
4                 COc1cc(CC(C)C)c(CO)cc1CCN             6.33

Prompt: For the compound COc1cc(CCN)c(OC)cc1Br [Compound 2C-B, reference compound] , report pEC50.
Completion: 7.68

* * *

Measured Mean Percent Inhibition of Control Specific Binding values are reported for all entries that follow.
- TARGET OR SYSTEM: CB1 (h) (Homo sapiens)
- Construct: expressed in transfected cells; host or cells: Chem-RBL cells
- Sequence (P21554 whole entry): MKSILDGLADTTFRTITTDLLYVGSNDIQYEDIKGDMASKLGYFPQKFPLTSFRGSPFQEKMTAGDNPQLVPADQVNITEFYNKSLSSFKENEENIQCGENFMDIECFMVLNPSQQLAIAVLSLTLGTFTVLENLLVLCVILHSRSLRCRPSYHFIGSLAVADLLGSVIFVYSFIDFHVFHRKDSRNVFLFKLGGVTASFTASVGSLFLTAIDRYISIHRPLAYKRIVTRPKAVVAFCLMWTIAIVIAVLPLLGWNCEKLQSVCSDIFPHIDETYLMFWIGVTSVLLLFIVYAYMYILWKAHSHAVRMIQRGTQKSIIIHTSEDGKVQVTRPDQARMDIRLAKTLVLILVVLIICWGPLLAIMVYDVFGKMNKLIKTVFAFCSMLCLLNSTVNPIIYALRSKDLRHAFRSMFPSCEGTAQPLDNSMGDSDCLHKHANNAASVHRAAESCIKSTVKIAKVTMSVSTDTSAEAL
- ASSAY NOTES: Radioligand binding CB1 (h) (agonist radioligand), [^3H]CP 55940, Chem-RBL cells

// worked examples, Mean Percent Inhibition of Control Specific Binding included
> print(dat)
                                   compound  result
1  COCc1cc(CCN)c(OC)cc1CC(C)C [Compound 2CiBu-5MM]   −5.6%
2  COCc1cc(CCN)c(O)cc1CC(C)C [2CiBu-2OH-5MM]   −1.9%
3  COCCc1cc(CCN)c(OC)cc1Br [Compound 2CB-5ME, reference compound]    4.0%

Below: the item to evaluate.
Prompt: For the compound COCc1cc(CCN)c(OC)cc1Br [Compound 2CB-5MM] , report Mean Percent Inhibition of Control Specific Binding.
Completion: −10.4%
